Test: Half-life was determined
Type: ADME
Settings: human
Please enter T where half-life is greater than or equal to 40 min, and F where it is lower.

[[record]]
compound = "CC(NC(=O)CC(=O)N[C@H](Cc1ccccc1)NC(=O)[C@@H](C)NC(=O)[C@@H](N)Cc1ccc(O)cc1)c1ccccc1 (some centres not stated)"
discrete_label = "T"

[[record]]
compound = "C[C@@H](NC(=O)[C@@H](N)Cc1ccc(O)cc1)C(=O)N(C)[C@@H](Cc1ccccc1)NC(=O)CNC(=O)C12CC3CC(CC(C3)C1)C2"
discrete_label = "T"

[[record]]
compound = "CCONC(=O)CNC(=O)[C@H](Cc1ccccc1)NC(=O)[C@@H](C)NC(=O)[C@@H](N)Cc1ccc(O)cc1"
discrete_label = "F"

[[record]]
compound = "C[C@@H](NC(=O)[C@@H](N)Cc1ccc(O)cc1)C(=O)N[C@@H](Cc1ccccc1)C(=O)NCC(=O)NC12CC3CC(CC(C3)C1)C2"
discrete_label = "F"

[[record]]
compound = "C[C@@H](NC(=O)[C@@H](N)Cc1ccc(O)cc1)C(=O)N[C@@H](Cc1ccccc1)NC(=O)CC(N)=O"
discrete_label = "F"

[[record]]
compound = "C[C@@H](NC(=O)[C@@H](N)Cc1ccc(O)cc1)C(=O)N[C@@H](Cc1ccccc1)NC(=O)CC(=O)NCc1ccccc1"
discrete_label = "F"

